Each entry below carries its recorded CD22 Median Fluorescent Intensity on CD20+ cells.
Biological target: T1, cynomolgus monkey CD22 on B cells of cynomolgus PBMCs (cynomolgus monkey)
T1 construct: whole, on cells; also called cynomolgus CD22; Cyno CD22
Assay: flow cytometry; Alexa Fluor 647-labelled antibody on CD20+ B cells of cynomolgus PBMCs; note: test concentration or dose not given here
Could you keep your reply to the number by itself?

-- ask Given TNT83 (antibody, human IgG1, kappa, V domains shown) VH: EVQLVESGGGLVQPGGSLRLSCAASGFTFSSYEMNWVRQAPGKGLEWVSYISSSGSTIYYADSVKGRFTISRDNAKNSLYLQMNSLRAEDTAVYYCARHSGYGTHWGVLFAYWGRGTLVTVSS VL: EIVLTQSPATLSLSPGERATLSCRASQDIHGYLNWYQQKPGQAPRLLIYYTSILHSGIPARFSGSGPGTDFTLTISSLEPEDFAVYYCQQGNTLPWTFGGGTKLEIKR , state its recorded CD22 Median Fluorescent Intensity on CD20+ cells.
-- reply 1400

-- ask And TNT78 (antibody, human IgG1, kappa, V domains shown) VH: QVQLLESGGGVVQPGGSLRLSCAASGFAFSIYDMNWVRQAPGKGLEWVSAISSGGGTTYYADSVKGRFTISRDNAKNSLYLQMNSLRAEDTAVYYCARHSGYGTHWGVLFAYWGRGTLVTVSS VL: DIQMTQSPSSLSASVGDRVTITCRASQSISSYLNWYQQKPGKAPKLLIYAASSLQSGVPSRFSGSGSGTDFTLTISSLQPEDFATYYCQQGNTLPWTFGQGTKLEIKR ?
-- reply 112

-- ask And TNT85 (antibody, human IgG1, kappa, V domains shown) VH: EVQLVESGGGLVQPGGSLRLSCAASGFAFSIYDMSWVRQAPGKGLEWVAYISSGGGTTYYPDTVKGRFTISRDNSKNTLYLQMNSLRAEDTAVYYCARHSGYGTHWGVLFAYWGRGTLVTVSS VL: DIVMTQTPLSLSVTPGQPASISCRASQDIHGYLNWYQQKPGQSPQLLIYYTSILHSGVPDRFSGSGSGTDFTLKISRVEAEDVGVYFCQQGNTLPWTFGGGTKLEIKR ?
-- reply 1380

***
-- ask Given TNT69 (antibody, human IgG1, kappa, V domains shown) VH: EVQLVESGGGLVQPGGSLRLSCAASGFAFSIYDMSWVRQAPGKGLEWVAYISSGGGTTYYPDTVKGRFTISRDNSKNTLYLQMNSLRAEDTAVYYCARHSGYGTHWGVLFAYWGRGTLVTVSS VL: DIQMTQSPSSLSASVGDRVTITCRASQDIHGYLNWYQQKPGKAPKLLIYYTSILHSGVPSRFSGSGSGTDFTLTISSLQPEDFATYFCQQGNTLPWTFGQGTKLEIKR , state its recorded CD22 Median Fluorescent Intensity on CD20+ cells.
-- reply 1410

-- ask And TNT71 (antibody, human IgG1, kappa, V domains shown) VH: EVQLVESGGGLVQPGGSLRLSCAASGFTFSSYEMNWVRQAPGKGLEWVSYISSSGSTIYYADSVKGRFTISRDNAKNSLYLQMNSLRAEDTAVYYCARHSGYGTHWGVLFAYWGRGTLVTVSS VL: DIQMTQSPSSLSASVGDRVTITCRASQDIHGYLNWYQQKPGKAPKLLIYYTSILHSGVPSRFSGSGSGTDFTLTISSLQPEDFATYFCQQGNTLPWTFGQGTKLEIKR ?
-- reply 1420

-- ask And TNT77 (antibody, human IgG1, kappa, V domains shown) VH: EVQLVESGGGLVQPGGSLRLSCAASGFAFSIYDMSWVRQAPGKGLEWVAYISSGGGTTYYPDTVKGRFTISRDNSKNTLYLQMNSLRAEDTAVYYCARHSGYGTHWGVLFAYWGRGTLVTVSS VL: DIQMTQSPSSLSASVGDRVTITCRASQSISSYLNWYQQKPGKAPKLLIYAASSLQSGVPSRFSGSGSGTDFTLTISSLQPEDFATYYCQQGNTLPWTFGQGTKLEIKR ?
-- reply 236
